- Target of assay: Alkaline phosphatase, tissue-nonspecific isozyme (Homo sapiens, UniProt P05186)
- Sequence (P05186 whole entry): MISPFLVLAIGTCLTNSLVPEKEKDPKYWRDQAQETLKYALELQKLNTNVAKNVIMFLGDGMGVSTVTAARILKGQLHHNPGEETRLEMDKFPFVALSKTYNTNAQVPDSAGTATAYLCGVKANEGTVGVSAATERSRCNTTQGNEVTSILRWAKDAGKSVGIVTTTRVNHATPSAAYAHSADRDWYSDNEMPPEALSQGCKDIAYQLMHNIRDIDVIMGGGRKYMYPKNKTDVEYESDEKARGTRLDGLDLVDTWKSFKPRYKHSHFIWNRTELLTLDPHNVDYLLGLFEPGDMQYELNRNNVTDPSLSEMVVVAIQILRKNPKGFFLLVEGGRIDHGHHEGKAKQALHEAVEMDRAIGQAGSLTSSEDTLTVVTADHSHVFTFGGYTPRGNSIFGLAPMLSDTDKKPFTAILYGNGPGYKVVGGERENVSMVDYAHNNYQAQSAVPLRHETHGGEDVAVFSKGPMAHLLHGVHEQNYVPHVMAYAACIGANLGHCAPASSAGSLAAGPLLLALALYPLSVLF
- Assay summary: human TNAP enzyme inhibitors, SAR follow-up, biochemical, luminescent, dose response (AID 1056)
Calls of active or inactive are those of the source. Cut-off read from the data, not from the text of the source: actives have a measured IC50 and inactives only a lower limit.
Possible outcomes: active, inactive

- Chemical structure: "O=C(c1[nH]nc2c1COc1ccccc1-2)N1CCCC1"
  Target of assay: "Alkaline phosphatase, tissue-nonspecific isozyme (Homo sapiens, UniProt P05186)"
  Category: "active"
- Chemical structure: "CC(=O)Nc1nnc(SCCc2ccccc2)[nH]1"
  Target of assay: "Alkaline phosphatase, tissue-nonspecific isozyme (Homo sapiens, UniProt P05186)"
  Category: "inactive"
- Chemical structure: "c1cncc(-c2nccs2)c1"
  Target of assay: "Alkaline phosphatase, tissue-nonspecific isozyme (Homo sapiens, UniProt P05186)"
  Category: "inactive"
- Chemical structure: "CC1(C)CC(=O)c2c(/C=C/c3ccccc3)n[nH]c2C1"
  Target of assay: "Alkaline phosphatase, tissue-nonspecific isozyme (Homo sapiens, UniProt P05186)"
  Category: "inactive"
- Chemical structure: "COc1ccc(OC)c(S(=O)(=O)Nc2ccc[nH]c2=O)c1"
  Target of assay: "Alkaline phosphatase, tissue-nonspecific isozyme (Homo sapiens, UniProt P05186)"
  Category: "active"
- Chemical structure: "CCCSc1nnc(NC(C)=O)[nH]1"
  Target of assay: "Alkaline phosphatase, tissue-nonspecific isozyme (Homo sapiens, UniProt P05186)"
  Category: "active"
- Chemical structure: "Cc1nc2ccccc2n1CC(=O)c1ccc(O)c(O)c1"
  Target of assay: "Alkaline phosphatase, tissue-nonspecific isozyme (Homo sapiens, UniProt P05186)"
  Category: "active"
